src = PubChem BioAssay (NCATS)

- Tested on: Zika virus NS2B-NS3 protease (unlinked complex)
- experimentalDetails: Primary screen GU Rhodamine qHTS for Zika virus inhibitors: Unlinked NS2B-NS3 protease assay (AID 1347159); note: nearly all actives have a fitted effect of over 60% in size
- conditionSummary: Recombinant ZIKV NS2B-NS3 protease, Rhodamine110 substrate fluorescence; series mostly up to 107 µM
Records with an inconclusive call do not appear. Active and inactive are the calls of the source. Calls come from the whole dose curve; as a rule, active = well fitted inhibition curve with a large enough effect; inconclusive = small, poorly fitted or top-dose-only effect; inactive = no such curve, though single readings can be large or run the other way.
# valid calls are active, inactive; nothing else

Use these answered entries as a reference point.
How was COc1ccc2c3c1O[C@H]1C[C@@H](O)C=C[C@@]31CCN(C)C2 classified in this test?
inactive

What about this compound? C=C1C[C@]23C[C@H]1CC[C@H]2[C@@]12C=C[C@H](O)[C@@](C)(C(=O)O1)[C@H]2[C@@H]3C(=O)O
inactive

What about this compound? C[C@@H]1CC[C@]2(C(=O)O[C@@H]3O[C@H](CO)[C@@H](O)[C@H](O)[C@H]3O)CC[C@]3(C)C(=CCC4[C@@]5(C)C[C@@H](O)[C@H](O)C(C)(C)C5CC[C@]43C)C2[C@]1(C)O (stereo partly specified)
inactive

What about this compound? CC1(C)CC[C@]2(C(=O)O)CC[C@]3(C)C(=CCC4[C@@]5(C)CC[C@H](O[C@@H]6O[C@H](C(=O)O)[C@@H](O)[C@H](O)[C@H]6O)C(C)(CO)C5CC[C@]43C)C2C1 (stereo partly specified)
inactive

What about this compound? CC1NC(=O)C(Cc2c[nH]c3ccccc23)NC1=O (stereo unspecified)
inactive

What about this compound? COc1cc(/C=C/C(=O)OC[C@H]2O[C@H](O[C@]3(CO)O[C@H](CO)[C@@H](O)[C@@H]3O)[C@H](O)[C@@H](O)[C@@H]2O)cc(OC)c1O
inactive

---
How was C[C@H]1[C@H](C)CC[C@]2(C(=O)O)CC[C@]3(C)C(=CC[C@@H]4[C@@]5(C)C[C@@H](O)[C@H](O)[C@@](C)(CO)[C@@H]5CC[C@]43C)[C@H]12 classified in this test?
inactive

What about this compound? O=C(NC[C@H](O)CN1CCc2ccccc2C1)c1cc(NC2COC2)ncn1
inactive

What about this compound? CC(C#N)C(C)O[C@@H]1O[C@H](CO)[C@@H](O)[C@H](O)[C@H]1O (stereo partly specified)
inactive

What about this compound? Cn1c(=O)cc(N2CCCC(N)C2)n(Cc2ccccc2C#N)c1=O (stereo unspecified)
inactive

What about this compound? C=CCc1ccc(O[C@@H]2O[C@H](CO)[C@@H](O)[C@H](O)[C@H]2O)c(OC)c1
active

---

- experimentalDetails: Cell Viability - HepG2 (AID 433);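 note: cells exposed to compound for 40 hours; potency for ATP loss meaning cytotoxicity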
- conditionSummary: qHTS
Records with an inconclusive call do not appear. Active and inactive are the calls of the source. Calls follow the shape of the full dose curve.
# valid calls are T for active, F for inactive; nothing else

How was Nc1ccn([C@H]2CS[C@@H](CO)O2)c(=O)n1 classified in this test?
F

---
How was CC(C)(C)NC(=O)[C@@H]1C[C@@H]2CCCC[C@@H]2CN1C[C@@H](O)[C@H](Cc1ccccc1)NC(=O)[C@H](CC(N)=O)NC(=O)c1ccc2ccccc2n1 classified in this test?
T

What about this molecule? CCCCCCCC(=O)O
F

What about this molecule? O=CCCCC=O
F

What about this molecule? O=S(=O)(O)O
F

What about this molecule? CCCCCCCC/C=C\CCCCCCCC(=O)O
F
